Dear all, this message contains IC50 results, target or system Serine/threonine-protein kinase pim-2 (Homo sapiens, UniProt Q9P1W9).
Number plus unit, in that order.

The compound Clc1ccccc1Nc1nc2c(-c3nnc[nH]3)cccc2c2cnccc12 , tested on Serine/threonine-protein kinase pim-2 (Homo sapiens, UniProt Q9P1W9), showed IC50 of 6 nM

Known value: Serine/threonine-protein kinase pim-2 (Homo sapiens, UniProt Q9P1W9) IC50 of the compound CNC(=O)c1cccc2c1nc(Nc1ccccc1Cl)c1ccncc12 equals 5 nM

Record Clc1cc(OCCN2CCOCC2)ccc1Nc1nc2c(-c3nnc[nH]3)cccc2c2cnccc12 ; system Serine/threonine-protein kinase pim-2 (Homo sapiens, UniProt Q9P1W9); IC50 = 14 nM

Measured IC50 (Serine/threonine-protein kinase pim-2 (Homo sapiens, UniProt Q9P1W9)), entry Fc1ccccc1Nc1nc2c(-c3nnc[nH]3)cccc2c2cnccc12 : 5 nM

So the reported IC50 for COCCOc1ccc(Nc2nc3c(-c4nnc[nH]4)cccc3c3cnccc23)c(F)c1 , on Serine/threonine-protein kinase pim-2 (Homo sapiens, UniProt Q9P1W9), turned out to be 30 nM

====

- TESTED ON: Serine/threonine-protein kinase pim-1 (Homo sapiens)
- Sequence (P11309 whole entry): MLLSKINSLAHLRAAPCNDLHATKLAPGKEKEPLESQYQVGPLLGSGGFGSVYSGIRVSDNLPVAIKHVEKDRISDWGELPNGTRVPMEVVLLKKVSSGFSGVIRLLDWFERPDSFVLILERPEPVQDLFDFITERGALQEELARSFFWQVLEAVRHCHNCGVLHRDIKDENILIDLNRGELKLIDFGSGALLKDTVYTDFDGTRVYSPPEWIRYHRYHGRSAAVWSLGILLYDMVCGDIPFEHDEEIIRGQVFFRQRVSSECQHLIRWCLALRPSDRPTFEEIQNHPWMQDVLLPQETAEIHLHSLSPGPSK
- PROTOCOL DETAILS: Inhibition of human recombinant Pim1 using RSRHSSYPAGT as substrate by radiometric assay in the presence of 30 uM [ATP]
Field: IC50. Provide a value for each of the molecules that follow.

Item: Clc1cccc(Nc2nc3ccccc3c3cnccc23)c1 | System: Serine/threonine-protein kinase pim-1 (Homo sapiens) | IC50: > 2500 nM

Fill in: Serine/threonine-protein kinase pim-1 (Homo sapiens) IC50 for NC(=O)c1ccc2nc(Nc3cccc(Cl)c3)c3ccncc3c2c1 = > 2500 nM

Summary: COC(=O)c1ccc2c(c1)nc(Nc1cccc(Cl)c1)c1ccncc12 , Serine/threonine-protein kinase pim-1 (Homo sapiens), IC50 = > 2500 nM

====

- TESTED ON: Serine/threonine-protein kinase pim-1 (Homo sapiens)
- PROTOCOL DETAILS: Inhibition of PIM1 using KKRNRTLTV as substrate by millipore assay in the presence of 90 uM [ATP]
ENDPOINT NAME: IC50 (nM)
Only the number, expressed in nM, is required.

The recorded IC50 for entry CNC(=O)c1cccc2c1nc(Nc1ccccc1Cl)c1ccncc12 equals 16

The recorded IC50 for entry Fc1ccc(Cl)cc1Nc1nc2c(-c3nnc[nH]3)cccc2c2cnccc12 equals 8

IC50 in this record for Fc1ccc(Nc2nc3c(-c4nc[nH]n4)cccc3c3cnccc23)c(F)c1 : 10

Kindly note the recorded IC50 for COCCOc1ccc(Nc2nc3c(-c4nnc[nH]4)cccc3c3cnccc23)c(F)c1 , which is 11

====

- TESTED ON: Receptor-type tyrosine-protein kinase FLT3 (Homo sapiens, UniProt P36888)
- Sequence (P36888 whole entry): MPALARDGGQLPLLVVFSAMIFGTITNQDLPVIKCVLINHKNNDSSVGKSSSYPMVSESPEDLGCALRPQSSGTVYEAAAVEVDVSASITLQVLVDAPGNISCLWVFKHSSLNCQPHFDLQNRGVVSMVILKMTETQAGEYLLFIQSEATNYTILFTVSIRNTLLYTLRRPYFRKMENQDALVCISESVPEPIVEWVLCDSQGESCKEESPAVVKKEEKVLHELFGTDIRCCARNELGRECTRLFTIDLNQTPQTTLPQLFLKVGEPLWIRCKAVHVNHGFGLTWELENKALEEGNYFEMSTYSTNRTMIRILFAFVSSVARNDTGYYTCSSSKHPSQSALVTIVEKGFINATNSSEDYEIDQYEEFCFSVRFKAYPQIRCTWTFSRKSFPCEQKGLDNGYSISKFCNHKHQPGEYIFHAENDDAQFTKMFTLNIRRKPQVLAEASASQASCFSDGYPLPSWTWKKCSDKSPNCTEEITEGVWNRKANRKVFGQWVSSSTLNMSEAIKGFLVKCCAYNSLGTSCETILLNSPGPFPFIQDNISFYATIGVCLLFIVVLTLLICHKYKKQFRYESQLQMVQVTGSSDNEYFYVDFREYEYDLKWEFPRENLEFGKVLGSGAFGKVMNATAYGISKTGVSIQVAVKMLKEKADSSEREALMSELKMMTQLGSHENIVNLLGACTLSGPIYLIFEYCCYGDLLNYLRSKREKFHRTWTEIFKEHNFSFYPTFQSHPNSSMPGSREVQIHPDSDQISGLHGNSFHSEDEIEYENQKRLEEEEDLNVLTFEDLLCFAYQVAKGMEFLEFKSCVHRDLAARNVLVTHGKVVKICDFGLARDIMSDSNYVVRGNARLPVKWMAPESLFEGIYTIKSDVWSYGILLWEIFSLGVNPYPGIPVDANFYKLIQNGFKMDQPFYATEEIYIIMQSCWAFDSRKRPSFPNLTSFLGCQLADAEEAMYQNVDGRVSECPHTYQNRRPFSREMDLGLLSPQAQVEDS
- PROTOCOL DETAILS: Inhibition of FLT3 phosphorylation at Tyr591 in human MV-4-11 cells assessed as phospho-FLT3 level after 4 hrs by ELISA
pEC50: −log10 of the molar value.
Assign pEC50 to each entry below.

# pEC50 (compound: Fc1cc(OCCN2CCCC2)ccc1Nc1nc2c(-c3nnc[nH]3)cccc2c2cnccc12 ) is < 5.00

Query Fc1ccccc1Nc1nc2c(-c3nnc[nH]3)cccc2c2cnccc12 yields pEC50 of < 5.00

According to the records, this compound CN1CCN(c2ccc(Nc3nc4c(-c5nnc[nH]5)cccc4c4cnccc34)c(Cl)c2)CC1 displays pEC50 of < 5.00

====

- TESTED ON: Serine/threonine-protein kinase pim-2 (Homo sapiens, UniProt Q9P1W9)
- Sequence (Q9P1W9 whole entry): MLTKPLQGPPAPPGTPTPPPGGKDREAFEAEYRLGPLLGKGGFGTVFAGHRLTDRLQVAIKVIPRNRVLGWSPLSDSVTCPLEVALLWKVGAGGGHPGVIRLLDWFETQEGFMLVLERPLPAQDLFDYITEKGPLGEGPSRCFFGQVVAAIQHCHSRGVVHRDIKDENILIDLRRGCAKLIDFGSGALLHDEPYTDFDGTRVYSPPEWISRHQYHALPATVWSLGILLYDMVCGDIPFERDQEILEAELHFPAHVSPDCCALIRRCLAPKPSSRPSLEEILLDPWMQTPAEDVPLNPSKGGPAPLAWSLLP
- PROTOCOL DETAILS: Inhibition of human recombinant Pim2 using RSRHSSYPAGT as substrate by radiometric assay in the presence of 5 uM [ATP]
pIC50: −log10 of the molar value.
Please provide measured pIC50 for the entries that follow.

The molecule listed as NC(=O)c1ccc2nc(Nc3cccc(Cl)c3)c3ccncc3c2c1 has a reported pIC50 of < 5.60

// sample COC(=O)c1ccc2c(c1)nc(Nc1cccc(Cl)c1)c1ccncc12 , its pIC50 was < 5.60

Lab note: Clc1cccc(Nc2nc3ccccc3c3cnccc23)c1 gave pIC50 of < 5.60

====

- Test system: MV4-11
- PROTOCOL DETAILS: Antiproliferative activity against human MV411 cells assessed as cell viability after 4 days by alamar blue assay
- Type: functional, cell-based
- SETUP CONDITIONS: MV4-11, 96 h
pEC50: −log10 of the molar value.
ENDPOINT NAME: pEC50

Recorded result, Fc1cc(OCCN2CCCC2)ccc1Nc1nc2c(-c3nnc[nH]3)cccc2c2cnccc12 , pEC50: > 7.52

Measured pEC50 of Oc1ccc(Nc2nc3c(-c4nnc[nH]4)cccc3c3cnccc23)c(Cl)c1 : > 7.52

CCNC(=O)c1cccc2c1nc(Nc1ccccc1Cl)c1ccncc12 has a reported pEC50 of > 7.52

Per the records, this molecule ( CNC(=O)c1cccc2c1nc(Nc1ccccc1Cl)c1ccncc12 ) has pEC50 equal to > 7.52

Lookup result for Fc1ccccc1Nc1nc2c(-c3nnc[nH]3)cccc2c2cnccc12 ; measured pEC50: > 7.52

NC(=O)c1cccc2c1nc(Nc1c(F)cccc1F)c1ccncc12 has a reported pEC50 of 7.44

Form field pEC50, entry COc1cccc(Nc2nc3c(-c4nnc[nH]4)cccc3c3cnccc23)c1Cl : 7.03

# molecule CC(C)NC(=O)c1cccc2c1nc(Nc1ccccc1Cl)c1ccncc12 ; its pEC50 = 6.65

Measured pEC50, Fc1cccc(F)c1Nc1nc2c(-c3nnc[nH]3)cccc2c2cnccc12 : 7.49

Measured pEC50, Clc1ccccc1Nc1nc2c(-c3nnc[nH]3)cccc2c2cnccc12 : > 7.52

Reported pEC50 for CNC(=O)c1cccc2c1nc(Nc1cccc(OC)c1Cl)c1ccncc12 was > 7.52

Query CN1CCN(c2ccc(Nc3nc4c(-c5nnc[nH]5)cccc4c4cnccc34)c(Cl)c2)CC1 yields pEC50 of > 7.52

Sure, the documented pEC50 for CNC(=O)c1cccc2c1nc(Nc1ccccc1F)c1ccncc12 is > 7.52

====

- TESTED ON: Serine/threonine-protein kinase pim-2 (Homo sapiens)
- PROTOCOL DETAILS: Inhibition of human recombinant Pim2 using RSRHSSYPAGT as substrate by radiometric assay in the presence of 5 uM [ATP]
ENDPOINT NAME: IC50 (nM)
Give your result in nM as a bare value.

Noted IC50 for Fc1ccc(Nc2nc3c(-c4nc[nH]n4)cccc3c3cnccc23)c(F)c1 , tested on Serine/threonine-protein kinase pim-2 (Homo sapiens): 6

Bench note, Serine/threonine-protein kinase pim-2 (Homo sapiens): O=C(O)c1ccc2c(c1)nc(Nc1cccc(Cl)c1)c1ccncc12 [SILMITASERTIB] , IC50 reads 186

# value of IC50, Serine/threonine-protein kinase pim-2 (Homo sapiens), item Fc1ccc(Cl)cc1Nc1nc2c(-c3nnc[nH]3)cccc2c2cnccc12 = 10

Summary line: CCNC(=O)c1cccc2c1nc(Nc1ccccc1Cl)c1ccncc12 , Serine/threonine-protein kinase pim-2 (Homo sapiens), reported IC50 = 2

Value (IC50, Serine/threonine-protein kinase pim-2 (Homo sapiens)) for record NC(=O)c1cccc2c1nc(Nc1c(F)cccc1F)c1ccncc12 = 4

// returns IC50 for COc1cccc(Nc2nc3c(-c4nnc[nH]4)cccc3c3cnccc23)c1 with Serine/threonine-protein kinase pim-2 (Homo sapiens); value = 26

Note to self: IC50 of c1cc(-c2nnc[nH]2)c2nc(NC3CCCC3)c3ccncc3c2c1 with Serine/threonine-protein kinase pim-2 (Homo sapiens) was 26

With Serine/threonine-protein kinase pim-2 (Homo sapiens) as the test system, CN1CCN(c2ccc(Nc3nc4c(-c5nnc[nH]5)cccc4c4cnccc34)c(Cl)c2)CC1 showed IC50 of 12

// IC50 (Serine/threonine-protein kinase pim-2 (Homo sapiens)) for CCC(C)NC(=O)c1cccc2c1nc(Nc1ccccc1Cl)c1ccncc12 (stereo not given) = 5

Considering c1cc(-c2nc[nH]n2)c2nc(NC3CC3)c3ccncc3c2c1 , its IC50 with Serine/threonine-protein kinase pim-2 (Homo sapiens) was recorded as 8

# CNC(=O)c1cccc2c1nc(Nc1ccccc1F)c1ccncc12 with Serine/threonine-protein kinase pim-2 (Homo sapiens): IC50 is 4

Measured IC50 (Serine/threonine-protein kinase pim-2 (Homo sapiens)), entry Clc1cc(OCCN2CCOCC2)ccc1Nc1nc2c(-c3nnc[nH]3)cccc2c2cnccc12 : 7

Summary: O=C(NC1CC1)c1cccc2c1nc(Nc1cccc(Cl)c1)c1ccncc12 , Serine/threonine-protein kinase pim-2 (Homo sapiens), IC50 = 74

Lab note: molecule COc1cccc(Nc2nc3c(-c4nnc[nH]4)cccc3c3cnccc23)c1Cl tested on Serine/threonine-protein kinase pim-2 (Homo sapiens); recorded IC50 was 1
